- Target desc: Human recombinant MAOA (Homo sapiens (Human), UniProt P21397)
- Sequence (P21397 whole entry): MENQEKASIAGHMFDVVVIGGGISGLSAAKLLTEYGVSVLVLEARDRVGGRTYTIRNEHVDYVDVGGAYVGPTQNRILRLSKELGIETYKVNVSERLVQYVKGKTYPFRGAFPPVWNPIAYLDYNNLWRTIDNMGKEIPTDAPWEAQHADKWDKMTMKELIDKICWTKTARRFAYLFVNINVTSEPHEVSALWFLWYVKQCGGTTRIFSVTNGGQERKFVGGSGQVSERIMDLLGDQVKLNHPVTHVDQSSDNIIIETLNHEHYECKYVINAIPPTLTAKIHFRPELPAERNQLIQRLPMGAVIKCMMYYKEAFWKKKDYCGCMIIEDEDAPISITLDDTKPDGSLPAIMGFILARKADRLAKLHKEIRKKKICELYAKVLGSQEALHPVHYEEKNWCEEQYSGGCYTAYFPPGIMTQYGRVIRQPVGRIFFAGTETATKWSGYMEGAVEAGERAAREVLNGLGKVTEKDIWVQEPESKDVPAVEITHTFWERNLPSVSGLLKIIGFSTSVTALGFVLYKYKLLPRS
- Assay info: MAOA in vitro activity experiment (MAO-Glo)
Value type: IC50

Value of measured IC50 for the entry O=S(=O)(c1ccccc1)N1CCc2cc([C@@H]3C[C@H]3NCCC3CCNCC3)ccc21 (relative stereo) [Compound A16] : > 100 µM

Value of measured IC50 for the entry O=C(Cc1ccccc1)N1CCc2cc([C@@H]3C[C@H]3NCC3CCNCC3)ccc21 (relative stereo) [Compound A49] : > 100 µM

Value of measured IC50 for the entry O=S(=O)(c1ccccc1)N1CCc2cc([C@@H]3C[C@H]3NC3CC4(CCNCC4)C3)ccc21 (relative stereo) [Compound A20] : > 100 µM

Value of measured IC50 for the entry CS(=O)(=O)N1CCc2cc([C@@H]3C[C@H]3NCC3CCNCC3)ccc21 (relative stereo) [Compound A40] : > 100 µM

Value of measured IC50 for the entry O=C(c1ccccc1)N1CCc2cc([C@@H]3C[C@H]3NCC3CCNCC3)ccc21 (relative stereo) [Compound A45] : > 100 µM

* * *

Collected IC50 values appear next to each entry.
- Tested on: Leukemia cell line MV4-11
- Assay info: Growth-inhibitory activity by MTS method
- Assay type: cell-based
- Conditions used: Homo sapiens; MV4-11 cells, 3 D; read-out: MTS 3 D

CC(C)(C)C(=O)N1CCc2cc([C@@H]3C[C@H]3NCC3CCNCC3)ccc21 (relative stereo) :: > 20 µM

Value of measured IC50 for the entry O=C(O)c1ccc(CN2CCC(CN[C@@H]3C[C@H]3c3ccccc3)CC2)cc1 [GSK2879552, GSK-2879552, reference compound] : > 20 µM

Value of measured IC50 for the entry O=C(c1ccccc1)N1CCc2cc([C@@H]3C[C@H]3NCC3CCNCC3)ccc21 (relative stereo) : > 20 µM

Value of measured IC50 for the entry O=C(Cc1ccccc1)N1CCc2cc([C@@H]3C[C@H]3NCC3CCNCC3)ccc21 (relative stereo) : > 20 µM

* * *

Collected melting point values appear next to each entry.

Examples with answers:
O=C(c1cccc(C(F)(F)F)c1)N1CCc2cc([C@@H]3C[C@H]3NCC3CCNCC3)ccc21 (relative stereo) [Compound A48] :: 230 to 232 °C
CC(C)(C)OC(=O)c1ccc(CN2CCC(CNC3CC3c3ccc4c(c3)CCN4S(=O)(=O)c3ccccc3)CC2)cc1 (stereo not drawn) [Compound A25] :: 62 to 65 °C

Please look at the following molecule next.
Value of measured melting point for the entry CCCS(=O)(=O)N1CCc2cc([C@@H]3C[C@H]3NCC3CCNCC3)ccc21 (relative stereo) [Compound A41] : 187 to 191 °C

* * *

- Target desc: Human recombinant MAOA (Homo sapiens (Human))
- Assay info: MAOA in vitro activity experiment (MAO-Glo)
Value type: IC50

Examples with answers:
CC(C)(C)OC(=O)N1CCC(CN[C@@H]2C[C@H]2c2ccc3c(c2)CCN3S(=O)(=O)c2ccccc2)CC1 (relative stereo) [Compound A27] :: > 100 µM
O=C(c1ccc(-c2ccccc2)cc1)N1CCc2cc([C@@H]3C[C@H]3NCC3CCNCC3)ccc21 (relative stereo) [Compound A47] :: > 100 µM
O=C(c1cccc(C(F)(F)F)c1)N1CCc2cc([C@@H]3C[C@H]3NCC3CCNCC3)ccc21 (relative stereo) [Compound A48] :: > 100 µM
O=S(=O)(c1ccc2ccccc2c1)N1CCc2cc([C@@H]3C[C@H]3NCC3CCNCC3)ccc21 (relative stereo) [Compound A33] :: 35.5 µM
CCC(=O)N1CCc2cc([C@@H]3C[C@H]3NCC3CCNCC3)ccc21 (relative stereo) [Compound A53] :: > 100 µM

Please look at the following molecule next.
Value of measured IC50 for the entry CC1(CN[C@@H]2C[C@H]2c2ccc3c(c2)CCN3S(=O)(=O)c2ccccc2)CCNCC1 (relative stereo) [Compound A21] : > 100 µM

Source of measurements: patent US11873292B2
